test system: SNB-19 CNS; assay: NCI-60 one-dose screen, 48 h (100 = growth as untreated, 0 = no growth, -100 = all killed); conditions: 10 µM unless noted
This is part of a sample that, as a whole, favours compounds with a hit. Of some 83,000 tested, about 20% had one in any assay.
# if value of growth reaches 80%, tag Condition met; if it stays below, tag Condition not met

>>> class_label("O=c1[nH]nc(-c2ccccc2)c2c(-c3ccccc3)onc12")
"Condition not met"
>>> class_label("CS(=O)(=O)c1ccc(Nc2nc(N[C@H]3CCCC[C@H]3N)nc3cc[nH]c(=O)c23)cc1")
"Condition not met"
>>> class_label("Cn1c(I)c(C#C[Si](C)(C)C)c(=O)n(C(=O)c2ccccc2)c1=O")
"Condition met"
>>> class_label("Cc1cc(NCc2cc(Nc3ccnc4cc(Cl)ccc34)ccc2F)nc(N2CCN(C)CC2)n1")
"Condition not met"
>>> class_label("O=C(NCCCNc1cc(-c2cn(-c3ccccc3)nc2-c2cccc(O)c2)ccn1)c1ccccc1")
"Condition not met"
>>> class_label("NC(=O)c1ccc[n+]([C@@H]2O[C@H](COP(=O)([O-])OP(=O)(O)OC[C@H]3O[C@@H](n4cnc5c(N)ncnc54)[C@H](O)[C@@H]3O)[C@@H](O)[C@H]2O)c1")
"Condition met"
>>> class_label("N#Cc1c(-c2ccccc2)cc(-c2ccc(Nc3nc(Nc4ccc(F)cc4)nc(Nc4ccc(F)cc4)n3)cc2)nc1N")
"Condition met"
>>> class_label("COc1ccc2oc3c(C)c4c(c(C)c3c2c1)C(=O)N(Cc1ccccc1)C4=O")
"Condition met"
>>> class_label("CC(C)(C)c1ccc(/C=C/C(=O)Nc2ccc(O)cc2)cc1")
"Condition met"
>>> class_label("COc1ccc(-c2ccc3c(c2)sc2nc(-c4ccc(F)cc4)cn23)cc1")
"Condition met"

---

test system: HCC-2998 colon; test: NCI-60 one-dose screen, 48 h (100 = growth as untreated, 0 = no growth, -100 = all killed); conditions: 10 µM unless noted
About 83,000 compounds went through this panel and 20% of them were active in at least one assay; those are over-represented in the sample as a whole.
Quick reference for growth among some molecules
assay-endpoint: growth (%)

>>> measured_number("CCc1c2c(nc3ccc(OC(=O)OCc4ccc(B5OC(C)(C)C(C)(C)O5)cc4)cc13)-c1cc3c(c(=O)n1C2)COC(=O)[C@]3(O)CC")
2.03
>>> measured_number("COc1ccc(-c2nc(SCCC(C)C)nc(N/N=C\\c3ccccc3O)c2C#N)cc1")
104
>>> measured_number("COC(=O)[C@H](CSC)N(C)C(=O)[C@@H]1CSSC[C@@H](NC(=O)c2nc3ccccc3cc2O)C(=O)NCC(=O)N1C")
98.8
>>> measured_number("C[C@]12CC[C@@H]3c4cc(OC(F)F)c(O)cc4CC[C@H]3[C@@H]1CC[C@@H]2OS(N)(=O)=O")
47.5

---

tested on: SF-295 CNS; experiment: NCI-60 one-dose screen, 48 h (100 = growth as untreated, 0 = no growth, -100 = all killed); conditions: 10 µM unless noted
Compounds without any hit were thinned out: in the full panel of roughly 83,000, 20% have a hit.
growth: recorded values
assay-endpoint: growth (%)

>>> measured_number("COc1cc2c(cc1-c1c(C)noc1C)ncc1nc(C3CCCCC3)n(C3CCC(OC(F)F)CC3)c12 (centres undefined)")
33.9
>>> measured_number("O=C(Nc1ccccc1)Nc1cccc(Oc2nnc(Cl)c3ccccc23)c1")
31.2
>>> measured_number("CC(=O)N1C(=S)NC(=O)C1Cn1c(-c2ccccc2)nc2ccccc21 (centres undefined)")
105
>>> measured_number("COc1ccc(-c2nc(SCCC(C)C)nc(N/N=C\\c3ccccc3O)c2C#N)cc1")
94.2
>>> measured_number("CCOc1ccccc1-n1c(CN2CCN(C(=O)COc3ccc(CNCCCCCCN4C5CCCC4CC(OC(=O)Nc4cc(C)ccc4OC)C5)cc3)CC2)nc2ccccc2c1=O (centres undefined)")
-92.6
>>> measured_number("O=C(Nc1cccc(Oc2nnc(Cl)c3ccccc23)c1)Nc1ccc(Cl)c(C(F)(F)F)c1")
-56.3
>>> measured_number("N#Cc1c(N2CCNCC2)nc2sc3cc(Cl)c(Cl)cc3n2c1=N")
113
>>> measured_number("CC(C)CCC[C@@H](C)[C@H]1CC[C@H]2[C@@H](Nc3ccc(O)cc3)CCC[C@]12C")
98.5
>>> measured_number("Cc1cc(=O)[nH]c(N=Nc2c(O)[nH]c3ccccc23)n1")
114
>>> measured_number("O=C1CCc2c(sc3[nH]c(=S)n(-c4ccc(OC(F)(F)F)cc4)c(=O)c23)C1")
17.2
>>> measured_number("O=Cc1ccc(O)c2ncccc12")
29.2
>>> measured_number("Cc1cc(NCc2cc(Nc3ccnc4cc(Cl)ccc34)ccc2F)nc(N2CCN(c3ccccc3)CC2)n1")
27.3
>>> measured_number("NC(=N\\N=C/c1ccccc1[N+](=O)[O-])/C(N)=N\\N=C/c1ccccc1[N+](=O)[O-]")
105
>>> measured_number("COc1ccc(-c2nc(SCCC(C)C)nc(N/N=C\\c3cccc([N+](=O)[O-])c3)c2C#N)cc1")
32.1
>>> measured_number("Fc1ccc(CNc2c3ccccc3nc3ccccc23)cc1F")
29.8
>>> measured_number("CCCCOc1nc2ccccc2cc1C1CNC(=O)c2ccccc2N1 (centres undefined)")
-5.68
>>> measured_number("CN1C(=O)N(C)C2C1NN=c1s/c(=C\\c3ccccc3)c(=O)n12 (centres undefined)")
34
>>> measured_number("O=C(NCCCNc1cc(-c2cn(-c3ccccc3)nc2-c2cccc(O)c2)ccn1)c1ccc(F)cc1")
-4.5
>>> measured_number("COc1ccc(N=C(c2ccccc2)C2C(=O)c3ccccc3C2=O)cc1")
67.2
>>> measured_number("C[n+]1cc2c3c(ccc2c2ccc4cc5c(cc4c21)OCO5)OCO3")
-63.1
>>> measured_number("NC(=O)c1ccc[n+](Cc2ccc(Cl)cc2Cl)c1")
111
>>> measured_number("OC(COc1ccccc1Cl)COc1ccccc1Cl")
104
>>> measured_number("COc1ccc(/C=c2\\nc3n(-c4ccccc4)c4nc5c6c(sc5c(=N)n4n-3c2=O)CCCC6)cc1")
98.4
>>> measured_number("Cc1cc(C)c(-c2c(C)cc(C)cc2CBr)c(CBr)c1")
84.7
>>> measured_number("OC(c1cccc(-n2ccc(C(F)(F)F)n2)c1)c1cnccc1NC1CCCCCC1 (centres undefined)")
81.3
>>> measured_number("CCCCCCCCCCCCCCCCCC1=NCCN1CCOC1=C(Cl)C(=O)c2ccccc2C1=O")
108
>>> measured_number("O=c1ssc(Cl)c1-c1ccccc1")
102
>>> measured_number("C=C(C)[C@@H]1CC=C2c3sc(-c4ccc(C)cc4)nc3C[C@@H](C)[C@]2(C)C1")
104
>>> measured_number("Nc1n[nH]c(-c2cc(Cl)ccc2O)c1-c1ccccc1")
102

---

The compounds listed here are annotated with their growth.
system: OVCAR-5 ovarian; assay: NCI-60 one-dose screen, 48 h (100 = growth as untreated, 0 = no growth, -100 = all killed); conditions: 10 µM unless noted
The panel holds about 83,000 compounds, 20% with a hit somewhere; the sample as a whole holds those more often. Calls of active or inactive are those of the source. The calls were made as follows: active = growth percent below 10; inactive = the rest.
assay-endpoint: growth

>>> result("COc1cc(C2CC(c3ccc(Nc4ccnc5cc(Cl)ccc45)cc3)=NN2C=O)cc(OC)c1OC (centres undefined)")
"109% (inactive)"
>>> result("CC(C)(C)c1ccc(/C=C/C(=O)Nc2ccc(O)cc2)cc1")
"89.8% (inactive)"
>>> result("CN(C)CCCn1c(=O)c2ccccc2c2ccccc21")
"73.3% (inactive)"
>>> result("CC1=C(SCCC(=O)OC(C[Se]C2=C(C)C(=O)c3ccccc3C2=O)C(=O)NCCCCCC(=O)OCc2ccccc2)C(=O)c2ccccc2C1=O (centres undefined)")
"44.6% (inactive)"
>>> result("CC1CC(C(C)(C)C)C(=O)C(C(C)(C)C)C1 (centres undefined)")
"99.6% (inactive)"
>>> result("COc1nc2c(c(=O)n1C)CN(c1ccccc1)C(=O)CN2C")
"79.9% [100 µM] (inactive)"
>>> result("O=[N+]([O-])c1ccc(-c2cc(-c3ccc(Nc4nc(Nc5ccc(Cl)cc5)nc(Nc5ccc(Cl)cc5)n4)cc3)no2)cc1")
"70.7% (inactive)"
>>> result("NC(=N\\N=C/c1ccccc1[N+](=O)[O-])/C(N)=N\\N=C/c1ccccc1[N+](=O)[O-]")
"109% (inactive)"
>>> result("N#Cc1nc2c(S(=O)(=O)c3ccc(Cl)cc3)c(N)n(Nc3cccc(Cl)c3)c2nc1C#N")
"68.4% (inactive)"
>>> result("CN(C)c1ccc(-c2ccc3[nH]c(=O)nc(-c4ccccc4)c3c2)cn1")
"65.9% (inactive)"
>>> result("O=C1/C(=C/c2ccc(Br)cc2)C=C(c2ccccc2)N1CCc1ccccc1")
"66% (inactive)"
>>> result("C=CCn1c(C)nc2cc(Nc3nc(N4CCCC4)nc4ccccc34)ccc21")
"123% (inactive)"
>>> result("COc1ccc(C2CC(c3cccc(OC)c3)=NN2C(=O)c2cc(OC)c(OC)c(OC)c2)cc1 (centres undefined)")
"44.5% (inactive)"
>>> result("COc1ccc(C2c3ccc4ccccc4c3Oc3nc(C)[nH]c(=O)c32)cc1 (centres undefined)")
"114% (inactive)"
>>> result("COc1ccc(N2CCN(c3nc(-c4cc(OC)c(OC)c(OC)c4)nc4ccccc34)CC2)cc1")
"93.5% (inactive)"
>>> result("Cn1ccc2c(c1=O)C(=O)c1nccc3c1c-2nc1ccccc13")
"69% (inactive)"
>>> result("O=C(Cc1ccc(F)c(F)c1)Nc1cc(C2(C(F)(F)F)CC2)nn1Cc1ccccc1")
"2.55% (active)"
>>> result("COc1nc(N(C)O)nc(N(C)O)n1")
"53.6% (inactive)"
>>> result("CCCCNC(=O)Oc1ccc2c(=O)c3sc4c(=O)c5ccccc5c(=O)c4c3c(=O)c2c1")
"-73.6% (active)"
>>> result("CCCCCCCOc1c(OC)cc(C2CC(=O)Nc3c2c(C)nn3-c2nc3ccccc3[nH]2)cc1OC (centres undefined)")
"9.97% (active)"
>>> result("CC1=CN2C(=O)C3C4=C(CCCC4)SC3N=C2CN1c1c(C)cccc1C (centres undefined)")
"94% (inactive)"
>>> result("COC(=O)c1c2c(c(C)[n+]([O-])c1C)C(=O)C(NCc1ccc(F)c(Cl)c1)=CC2=O")
"38.2% (inactive)"
>>> result("COc1cccc(-c2nc3sccn3c2-c2ccnc(NCCNS(=O)(=O)c3cccc(F)c3)c2)c1")
"71.4% (inactive)"
>>> result("Cn1c(-c2c(N)n(Cc3ccc(C(F)(F)F)cc3)c3nc(C#N)c(C#N)nc23)nc2ccccc21")
"30% (inactive)"
